Ref: patent US9611230B2

endpoint.name: melting point

## Task Provide only the value of recorded melting point for Cc1ccc(-c2noc(-c3cccc(C(=O)O)c3)n2)cc1
## Result 243 to 244 °C

## Task Let me know recorded melting point for CC(C)(C)C1CCC(c2nnc(-c3ccc(C(=O)O)cc3)o2)CC1 (stereo not drawn) , thanks.
## Result 258 to 261 °C

## Task Return melting point for the following molecule: Cc1ccc(-c2cc(-c3ccc(C(=O)O)cc3)on2)cc1
## Result 307 to 308 °C

## Task Return value of melting point for input Cc1cccc(-c2ccc(-c3nnc(-c4cccc(C(=O)O)c4)o3)cn2)c1 , no commentary.
## Result 274 to 275 °C

## Task Give melting point for the following molecule: O=C(O)c1ccc(-c2ncc(C#Cc3ccccc3)o2)cc1
## Result 251 to 253 °C

## Task Report melting point for N#Cc1c(-c2cccc(C(=O)O)c2)noc1-c1ccccc1
## Result 249 to 250 °C

## Task Specify measured melting point for CN(C)c1ccc(-c2nnc(-c3ccccc3C(=O)O)o2)cc1 .
## Result 197 to 200 °C

## Task Output measured melting point for this item: CC(C)c1ccc(-c2nc(-c3cccc(C(=O)O)c3)co2)cc1
## Result 236 to 239 °C

## Task Retrieve melting point measured for COc1cccc(-c2cc(-c3cccc(C(=O)O)c3)n[nH]2)c1 and print it.
## Result 238 to 239 °C

* * *

Provide the recorded melting point for the entries that follow.

## Task // fetch melting point given entry O=C(O)c1cccc(-c2cc(-c3ccccc3F)on2)c1 [Compound 463]
## Result 221 to 222 °C

## Task Please give the documented melting point of COc1ccccc1-c1n[nH]c(-c2cccc(C(=O)O)c2)n1 [Compound 459]
## Result 287 to 290 °C

## Task Please give measured melting point of the following entry: O=C(O)c1cccc(-c2nc(-c3ccccc3F)no2)c1 [Compound No. 506]
## Result 233 to 234 °C

## Task Please give the documented melting point of CCc1ccc(-c2cnc(-c3cccc(C(=O)O)c3)o2)cc1 [Compound 590]
## Result 174 to 175 °C

## Task For the compound CC(C)c1ccc(-c2nc(-c3ccc(C(=O)O)cc3)no2)cc1 [Compound No. 275] , give its measured melting point value.
## Result 210 to 213 °C

## Task Return value of melting point for input CCc1ccc(-c2cnc(-c3ccc(C(=O)O)cc3)o2)cc1 [Compound 634] , no commentary.
## Result 233 to 234 °C

## Task Please list melting point recorded for the compound O=C(O)Cc1ccc(-c2ncc(-c3ccc(F)cc3F)o2)cc1 [Compound 650]
## Result 191 to 193 °C

## Task Output measured melting point for this item: O=C(O)c1ccc(-c2ncc(-c3cccc(F)c3)o2)cc1 [Compound 553]
## Result 264 to 265 °C

## Task Supply reported melting point belonging to this compound: CC(C)c1ccc(-c2ncc(-c3cccc(C(=O)O)c3)o2)cc1 [Compound No. 320]
## Result 193 to 195 °C

## Task Quote melting point reported for CC(C)c1ccc(-c2nc(-c3cccc(C(=O)O)c3)ns2)cc1 [Compound No. 323] please.
## Result 165 to 167 °C

## Task Name the recorded melting point of the compound listed here: O=C(O)c1cccc(-c2nnc(-c3ccc(C(=O)N4CCCCC4)cc3)o2)c1 [Compound 285]
## Result 253 to 256 °C

## Task Name the recorded melting point of the compound listed here: O=C(O)c1cccc(-c2nnc(-c3ccc(N4CCCCC4)cc3)o2)c1 [Compound 83]
## Result 275 to 277 °C

## Task Kindly indicate its recorded melting point. Item: COc1cccc(-c2cnc(-c3ccc(C(=O)O)cc3)o2)c1 [Compound 544]
## Result 240 to 242 °C

## Task Give melting point for O=C(O)c1cccc(-c2noc(-c3ccccc3)c2CO)c1 [Compound 484]
## Result 215 to 216 °C

## Task Give melting point for O=C(O)c1cccc(-c2nc(-c3cccc(F)c3)no2)c1 [Compound 507]
## Result 221.5 to 223 °C
